Biological target: human orexin receptor 2 (Homo sapiens (Human))
Sequence (O43614 whole entry): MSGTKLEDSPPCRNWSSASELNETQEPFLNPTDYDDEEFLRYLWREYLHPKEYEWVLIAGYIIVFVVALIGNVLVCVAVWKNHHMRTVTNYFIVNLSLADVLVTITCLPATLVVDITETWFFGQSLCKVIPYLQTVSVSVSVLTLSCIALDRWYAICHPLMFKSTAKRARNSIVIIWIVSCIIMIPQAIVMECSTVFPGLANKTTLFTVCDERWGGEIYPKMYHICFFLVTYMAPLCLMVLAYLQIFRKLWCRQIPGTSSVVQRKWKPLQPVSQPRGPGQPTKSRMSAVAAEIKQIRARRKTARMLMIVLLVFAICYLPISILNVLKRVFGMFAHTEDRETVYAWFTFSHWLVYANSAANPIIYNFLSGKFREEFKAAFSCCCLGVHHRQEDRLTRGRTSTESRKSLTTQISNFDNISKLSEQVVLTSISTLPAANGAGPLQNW
Test: Orexin antagonist activity, intracellular calcium FLIPR assay (orexin receptor 2)
Details: RBL-2H3 cells stably expressing human orexin receptor 2; orexin-A at approx. 80% maximal response; 15 min preincubation; read-out: Human Orexin2R IC50
ENDPOINT NAME: IC50

// worked examples, IC50 included
> print(dat)
                                   compound                        measurement.target   result
1  O=C(N[C@H]1CCC[C@@H]1Nc1nc2ccc(F)cc2s1)c1ncccc1OC(F)F  human orexin receptor 2 (Homo sapiens (Human))  > 10 µM
2  O=C(N[C@H]1CCC[C@@H]1Nc1nc2ccc(F)cc2s1)c1ncccc1N1CCCC1  human orexin receptor 2 (Homo sapiens (Human))  > 10 µM
3  O=C(N[C@H]1CCC[C@@H]1Nc1nc2ccc(F)cc2s1)c1ncccc1F  human orexin receptor 2 (Homo sapiens (Human))  > 10 µM
4  O=C(N[C@H]1CCC[C@@H]1Nc1nc2ccc(F)cc2s1)c1ncccc1-n1nccn1  human orexin receptor 2 (Homo sapiens (Human))  > 10 µM
5  COc1cccnc1C(=O)N[C@H]1CCC[C@@H]1Nc1nc2ccc(F)cc2s1  human orexin receptor 2 (Homo sapiens (Human))  > 10 µM

Challenge: Which IC50 is listed for O=C(N[C@H]1CCC[C@@H]1Nc1nc2ccc(F)cc2s1)c1ncccc1N1CCCCC1 ?
Response given: > 10 µM

Challenge: For the compound shown here, O=C(N[C@H]1CCC[C@@H]1Nc1nc2ccc(F)cc2s1)c1ncccc1Br , give the reported IC50.
Response given: > 10 µM
